Tested on: MOG-G-CCM (Low Grade Glioma)
procedure.summary: combination Emax (second highest fraction inhibited in the dose matrix, 72 h); higher = more inhibition; extreme values may be limits of the assay
value.type: combination Emax
Reply with just the number.

What value of measured combination Emax is listed for Cc1cc2ncnn2cc1Nc1ncc2c(n1)n(C1CCOCC1)c(=O)n2C [AZD7648] + O=C(c1cc(Cc2n[nH]c(=O)c3ccccc23)ccc1F)N1CCN(C(=O)C2CC2)CC1 [Olaparib] (first compound max 10 µM, 7x7, partner max 10 µM) ?
0.236

combination Emax lookup needed for CC(=O)c1c(C)c2cnc(Nc3ccc(N4CCNCC4)cn3)nc2n(C2CCCC2)c1=O [Palbociclib] + Cc1c2c(nn1C)CSCc1cc(n(C)n1)CSc1cc(c3ccccc3c1)OCCCc1c(C(=O)O)n(C)c3c-2c(Cl)ccc13 [AZD5991] (first compound max 10 µM, 7x7, partner max 1 µM) , thanks.
0.169

If you can, please state the reported combination Emax value of CN(CCO)CC[C@H](CSc1ccccc1)Nc1ccc(S(=O)(=O)NC(=O)c2ccc(N3CCC([C@@H](O)c4ccccc4-c4ccc(Cl)cc4)CC3)cc2)cc1S(=O)(=O)C(F)(F)F [AZD4320] + CS(=O)(=O)CCNCc1ccc(-c2ccc3ncnc(Nc4ccc(OCc5cccc(F)c5)c(Cl)c4)c3c2)o1 [Lapatinib] (first compound max 1 µM, 7x7, partner max 10 µM) .
0.729

Consider the compound Cc1c2c(nn1C)CSCc1cc(n(C)n1)CSc1cc(c3ccccc3c1)OCCCc1c(C(=O)O)n(C)c3c-2c(Cl)ccc13 [AZD5991] + Cn1cnc2c(F)c(Nc3ccc(Br)cc3Cl)c(C(=O)NOCCO)cc21 [Selumetinib] (first compound max 1 µM, 7x7, partner max 3 µM) and give its measured combination Emax.
0.195

Quick check: combination Emax of CN(CCO)CC[C@H](CSc1ccccc1)Nc1ccc(S(=O)(=O)NC(=O)c2ccc(N3CCC([C@@H](O)c4ccccc4-c4ccc(Cl)cc4)CC3)cc2)cc1S(=O)(=O)C(F)(F)F [AZD4320] + Nc1ccn([C@@H]2O[C@H](CO)[C@@H](O)C2(F)F)c(=O)n1 [Gemcitabine] (first compound max 1 µM, 7x7, partner max 0.3 µM) ?
0.597

If you can, please state the reported combination Emax value of Cc1cc2ncnn2cc1Nc1ncc2c(n1)n(C1CCOCC1)c(=O)n2C [AZD7648] + C=CCn1c(=O)c2cnc(Nc3ccc(N4CCN(C)CC4)cc3)nc2n1-c1cccc(C(C)(C)O)n1 [AZD1775] (first compound max 10 µM, partner max 1 µM) .
0.48

So what does the record say about combination Emax for CCN(CCO)CCCOc1ccc2c(Nc3cc(CC(=O)Nc4cccc(F)c4)[nH]n3)ncnc2c1 [AZD2811] + C=CCn1c(=O)c2cnc(Nc3ccc(N4CCN(C)CC4)cc3)nc2n1-c1cccc(C(C)(C)O)n1 [AZD1775] (first compound max 1 µM, partner max 1 µM) ?
0.377

Find the recorded combination Emax belonging to Cc1c2c(nn1C)CSCc1cc(n(C)n1)CSc1cc(c3ccccc3c1)OCCCc1c(C(=O)O)n(C)c3c-2c(Cl)ccc13 [AZD5991] + Cc1cc2ncnn2cc1Nc1ncc2c(n1)n(C1CCOCC1)c(=O)n2C [AZD7648] (first compound max 1 µM, 7x7, partner max 10 µM) and report it.
0.302

So what's the measured combination Emax for this one? CN(C)CCCOc1ccc(-c2ccc3ncc4c(c3c2)n(C2CCOCC2)c(=O)n4C)cn1 [AZD0156] + C=CCn1c(=O)c2cnc(Nc3ccc(N4CCN(C)CC4)cc3)nc2n1-c1cccc(C(C)(C)O)n1 [AZD1775] (first compound max 1 µM, partner max 1 µM)
0.4

For CN(CCO)CC[C@H](CSc1ccccc1)Nc1ccc(S(=O)(=O)NC(=O)c2ccc(N3CCC([C@@H](O)c4ccccc4-c4ccc(Cl)cc4)CC3)cc2)cc1S(=O)(=O)C(F)(F)F [AZD4320] + Cn1cnc2c(F)c(Nc3ccc(Br)cc3Cl)c(C(=O)NOCCO)cc21 [Selumetinib] (first compound max 1 µM, 7x7, partner max 3 µM) , what is its reported combination Emax?
0.576

Entry CN(CCO)CC[C@H](CSc1ccccc1)Nc1ccc(S(=O)(=O)NC(=O)c2ccc(N3CCC([C@@H](O)c4ccccc4-c4ccc(Cl)cc4)CC3)cc2)cc1S(=O)(=O)C(F)(F)F [AZD4320] + C=CCn1c(=O)c2cnc(Nc3ccc(N4CCN(C)CC4)cc3)nc2n1-c1cccc(C(C)(C)O)n1 [AZD1775] (first compound max 1 µM, partner max 1 µM) : reported combination Emax = ?
0.733

These entries and their values trace back to the supplement of paper PMC11061612.
